test.description: A549 cell viability effects, profiling panel, calcein-AM fluorescence, 48 h, basal (AID 1162); further: test concentration not given here
experimental.parameters: higher = more signal
# thresholds on z-score define classes: group 1: < -0.4; group 2: ≥ -0.4 and < 0.4; group 3: ≥ 0.4

Prompt: Bin this entry: C=CCC(OC(C)=O)[C@@H]1[C@@H](N(Cc2cccc3ccccc23)C(=O)Cc2ccc(F)cc2)c2cc(OCCCO)ccc2N1C(=O)Cc1ccc2ccccc2c1 (stereo partly drawn)
Response: group 3

Prompt: Bin this entry: `O=C1O[C@@H](c2ccccc2)[C@@H](c2ccccc2)N2[C@@H](c3ccc(O)cc3)[C@]3(C(=O)Nc4ccc(C#CC5(O)CCCCCC5)cc43)[C@@H](C(=O)Nc3nc4ccccc4s3)[C@H]12`
Response: group 3

Prompt: Bin this entry: `COC(=O)[C@@]1(Cc2ccccc2CN=[N+]=[N-])N=C(c2ccc(OCCCO)cc2)O[C@H]1c1ccccc1N=[N+]=[N-]`
Response: group 1

Prompt: Bin this entry: `CO[C@H]1O[C@H](CO)[C@@H](OC(=O)CCc2ccccc2)[C@@H]2OC(=O)[C@H](Cc3cccc(Br)c3)C/C=C/C[C@@H](Cc3cccc(Br)c3)C(=O)O[C@@H]12`
Response: group 3

Prompt: Bin this entry: `CCOC(=O)C[C@H]1[C@H](OC(=O)c2cc3ccccc3oc2=O)[C@@H](NC(=O)c2ccc3ccccc3c2)c2cc(OCCCO)ccc2N1C(=O)c1ccc2ccccc2n1`
Response: group 3

Prompt: Bin this entry: `CC(C)[Si](OCC[C@H]1O[C@]2(C(=O)N(Cc3ccccc3)c3ccccc32)[C@@H](C)[C@@H]1[Si](C)(C)O)(C(C)C)C(C)C`
Response: group 2

Prompt: Bin this entry: `COc1ccc(C(=O)Nc2ccc(CN3C(=O)[C@]4(O[C@H](CCn5cc(CCO)nn5)[C@@H]([Si](C)(C)c5ccc(OC)cc5)[C@@H]4C)c4ccccc43)cc2)cc1`
Response: group 1

Prompt: Bin this entry: `CC[C@@H]1C=C(C(=O)O)[C@H](c2ccccc2)N1S(=O)(=O)c1ccc([N+](=O)[O-])cc1`
Response: group 2

Prompt: Bin this entry: `C=CC[C@]1(C(=O)OC)N=C(c2ccc(OCCCO)cc2)O[C@H]1c1ccccc1CN=[N+]=[N-]`
Response: group 1

Prompt: Bin this entry: C=CCC(OC(C)=O)[C@@H]1[C@@H](N(Cc2ccc(-c3ccccc3)cc2)C(=O)c2ccc(-c3ccccc3)cc2)c2cc(OCCCO)ccc2N1C(=O)Cc1ccc(OC)cc1 (stereo partly drawn)
Response: group 2

Prompt: Bin this entry: `[N-]=[N+]=NCc1ccccc1C[C@]1(C(N)=O)N=C(c2ccc(OCCCO)cc2)O[C@H]1c1ccccc1CN=[N+]=[N-]`
Response: group 1

Prompt: Bin this entry: `C=C(CCCC)/C(=C/C[C@H](OC(=O)c1ccncc1)c1cccc(OCCO)c1)c1cc(C(=O)OC)ccc1OC`
Response: group 2

Prompt: Bin this entry: `Cc1ccc(S[C@]2(C(=O)O)CC(=O)N(Cc3ccccc3)[C@@H]2c2ccc(CO)cc2)cc1`
Response: group 3

====

test.description: basal RPMI8226 viability, no added stimulus, profiling panel, cell-based, calcein-AM fluorescence, 48 h, PK04 Diversity Set (AID 1166);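 further: cells grown under basal conditions without added stimulus; test concentration not given here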
experimental.parameters: RPMI8226 myeloma viability, higher = more signal
measurement.name: z-score
Please give the numeric answer without any surrounding text.

Just so you know, measured z-score for `Cc1ccc(S[C@]2(C(=O)O)CC(=O)N(Cc3ccccc3)[C@@H]2c2ccc(CO)cc2)cc1` came out at 0.607

Just so you know, measured z-score for C=CC[C@@]1(C(=O)NCC(O)CO)N=C(c2ccc(OCCCO)cc2)O[C@@H]1c1ccccc1CN=[N+]=[N-] (some centres undefined) came out at 0.0295

Just so you know, measured z-score for `CCCCCCc1nc(-c2cc(C)c(OC)c(C)c2)cc2c1[Si](C(C)C)(C(C)C)O[C@H]2c1ccccc1` came out at -0.942

Just so you know, measured z-score for `[N-]=[N+]=NCc1ccccc1[C@H]1OC(c2ccc(OCCCO)cc2)=N[C@@]1(Cc1ccccc1N=[N+]=[N-])C(=O)NCc1ccccc1` came out at -3.8
